Each entry below lists one item and its recorded Pre-emergence action against LOLMU (herbicidal activity) value.
Tested on: LOLMU
Test: Pre-emergence action against LOLMU
Type: in vivo, Lolium multiflorum
Settings: dosage 320 g/ha, scored visually after 3 weeks vs untreated controls
Source text: Seeds of monocotyledonous and dicotyledonous weed plants and crop plants are laid out in sandy loam soil in wood-fiber pots and covered with soil. […] The damage to the test plants is scored visually after a test period of 3 weeks by comparison with untreated controls (herbicidal activity in percent (%): 100% activity=the plants have died, 0% activity=like control plants).
property.label: Pre-emergence action against LOLMU (herbicidal activity) (%)

>  <molecule>
CCn1nnnc1NC(=O)c1ccc(Cl)c(C(C)=O)c1Cl [2-114]

>  <experimental.system>
LOLMU

>  <result.value>
80

$$$$
>  <molecule>
CCn1nnnc1NC(=O)c1ccc(Cl)c(C(=O)C2CC2)c1Cl [2-116]

>  <experimental.system>
LOLMU

>  <result.value>
100

$$$$
>  <molecule>
CCn1nnnc1NC(=O)c1ccc(C(F)(F)F)c(C(C)=O)c1OC [2-48]

>  <experimental.system>
LOLMU

>  <result.value>
80

$$$$
>  <molecule>
CCn1nnnc1NC(=O)c1ccc(S(C)(=O)=O)c(C(=O)C2CC2)c1Cl [2-129]

>  <experimental.system>
LOLMU

>  <result.value>
90

$$$$
>  <molecule>
CCn1nnnc1NC(=O)c1ccc(C(F)(F)F)c(C(C)=O)c1C [2-14]

>  <experimental.system>
LOLMU

>  <result.value>
80

$$$$
>  <molecule>
CCn1nnnc1NC(=O)c1ccc(SC)c(C(=O)C2CC2)c1Cl [2-123]

>  <experimental.system>
LOLMU

>  <result.value>
90

$$$$
>  <molecule>
CCC(=O)c1c(Cl)ccc(C(=O)Nc2nnnn2CC)c1Cl [2-115]

>  <experimental.system>
LOLMU

>  <result.value>
100

$$$$
>  <molecule>
CCn1nnnc1NC(=O)c1ccc(C(F)(F)F)c(C(=O)C2CC2)c1OC [2-50]

>  <experimental.system>
LOLMU

>  <result.value>
100

$$$$
>  <molecule>
CCn1nnnc1NC(=O)c1ccc(C(F)(F)F)c(C(C)=O)c1SC [2-58]

>  <experimental.system>
LOLMU

>  <result.value>
90

$$$$
>  <molecule>
CCC(=O)c1c(C(F)(F)F)ccc(C(=O)Nc2nnnn2CC)c1C [2-15]

>  <experimental.system>
LOLMU

>  <result.value>
100

$$$$
>  <molecule>
CCn1nnnc1NC(=O)c1ccc(C(F)(F)F)c(C(C)=O)c1Br [2-195]

>  <experimental.system>
LOLMU

>  <result.value>
80

$$$$
>  <molecule>
CCn1nnnc1NC(=O)c1ccc(C(F)(F)F)c(C(=O)C2CC2)c1Cl [2-141]

>  <experimental.system>
LOLMU

>  <result.value>
100

$$$$
